- measuredOn: human norepinephrine transporter (NET) (Homo sapiens (Human))
- Sequence (P23975 whole entry): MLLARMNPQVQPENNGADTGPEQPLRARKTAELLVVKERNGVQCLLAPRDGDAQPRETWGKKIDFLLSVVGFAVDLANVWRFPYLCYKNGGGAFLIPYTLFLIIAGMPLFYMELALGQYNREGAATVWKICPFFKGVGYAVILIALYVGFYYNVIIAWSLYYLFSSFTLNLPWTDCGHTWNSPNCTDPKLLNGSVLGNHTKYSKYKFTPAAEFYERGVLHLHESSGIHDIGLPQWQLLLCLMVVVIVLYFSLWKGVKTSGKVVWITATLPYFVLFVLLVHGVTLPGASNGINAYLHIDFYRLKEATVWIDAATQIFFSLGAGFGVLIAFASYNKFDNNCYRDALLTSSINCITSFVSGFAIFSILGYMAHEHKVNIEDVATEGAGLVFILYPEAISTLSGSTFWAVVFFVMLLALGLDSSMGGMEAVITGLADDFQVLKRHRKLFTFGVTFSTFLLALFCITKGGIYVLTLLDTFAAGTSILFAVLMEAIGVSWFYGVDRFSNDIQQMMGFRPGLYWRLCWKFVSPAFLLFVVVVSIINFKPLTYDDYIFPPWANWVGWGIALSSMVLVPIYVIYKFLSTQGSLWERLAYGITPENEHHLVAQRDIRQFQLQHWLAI
- assayText: Scintillation Proximity Assay (SPA) for human NET binding ([3H]nisoxetine)
- conditions: recombinant human NET, CHO membranes
experimentalReadout: pIC50 NET
Give bare numbers.

compound: NCC1(O)CCN(c2cccc(Oc3ccccc3)c2F)CC1 [Example 16]
measuredOn: human norepinephrine transporter (NET) (Homo sapiens (Human))
experimentalReadout: pIC50 NET
experimentalValue: 6.01

compound: O=C(NCC1(O)CCN(c2nc(Oc3cccc(F)c3)cc(C(F)(F)F)n2)CC1)c1cn[nH]c1 [Example 27]
measuredOn: human norepinephrine transporter (NET) (Homo sapiens (Human))
experimentalReadout: pIC50 NET
experimentalValue: 5.65

compound: CN(C)CC1(O)CCN(c2nc(Oc3cccc(F)c3)cc(C(F)(F)F)n2)CC1 [Example 1]
measuredOn: human norepinephrine transporter (NET) (Homo sapiens (Human))
experimentalReadout: pIC50 NET
experimentalValue: 7.00

compound: O=C(NCC1(O)CCN(c2nc(Oc3cccc(F)c3)cc(C(F)(F)F)n2)CC1)c1cnccn1 [Example 28]
measuredOn: human norepinephrine transporter (NET) (Homo sapiens (Human))
experimentalReadout: pIC50 NET
experimentalValue: 5.96

compound: CC(C)(C)NCC1(O)CCN(c2nc(Oc3cccc(F)c3)cc(C(F)(F)F)n2)CC1 [Example 9]
measuredOn: human norepinephrine transporter (NET) (Homo sapiens (Human))
experimentalReadout: pIC50 NET
experimentalValue: 6.02

compound: OC1(CNC2CC2)CCN(c2nc(Oc3cccc(F)c3)cc(C(F)(F)F)n2)CC1 [Example 3]
measuredOn: human norepinephrine transporter (NET) (Homo sapiens (Human))
experimentalReadout: pIC50 NET
experimentalValue: 6.42

// for each compound in input: emit pIC50 NET
1. O=C(CC1CC1)NCC1(O)CCN(c2nc(Oc3cccc(F)c3)cc(C(F)(F)F)n2)CC1 [Example 22]
2. CC(=O)NCC1(O)CCN(c2nc(Oc3cccc(F)c3)cc(C(F)(F)F)n2)CC1 [Example 24]

Out:
5.76
5.04

List the reported pIC50 NET of each compound below.
1. OC1(CN2CCC(F)(F)C2)CCN(c2nc(Oc3cccc(F)c3)cc(C(F)(F)F)n2)CC1 [Example 6]
2. NCC1(O)CCN(c2nc(Oc3cccc(F)c3)cc(C(F)(F)F)n2)C1 (centres unmarked) [Example 33]
3. CC(C)C(=O)NCC1(O)CCN(c2nc(Oc3cccc(F)c3)cc(C(F)(F)F)n2)CC1 [Example 21]
4. CN(CC1(O)CCN(c2nc(Oc3cccc(F)c3)cc(C(F)(F)F)n2)CC1)C1CC1 [Example 4]
5. Cl.NCC1(O)CCN(c2nc(Oc3cccc(F)c3)cc(C(F)(F)F)n2)CC1 [Example 12]
6. OC1(CN2CCCC2)CCN(c2nc(Oc3cccc(F)c3)cc(C(F)(F)F)n2)CC1 [Example 2]
7. O=C1CCCN1CC1(O)CCN(c2nc(Oc3cccc(F)c3)cc(C(F)(F)F)n2)CC1 [Example 10]
8. NCC1(O)CCN(c2cc(F)c(F)c(Oc3cccc(F)c3)c2)CC1 [Example 19]

Out:
[5.94, 6.52, 4.75, 6.19, 6.84, 7.57, 5.33, 6.10]

Kindly note the recorded pIC50 NET for Cl.OC1(CN2CCCNCC2)CCN(c2nc(Oc3cccc(F)c3)cc(C(F)(F)F)n2)CC1 [Example 7] , which is 6.53
